System: TRZAWR (Wheat, Winter, cv Riband)
Procedure Text: Postemergence herbicidal evaluation
Format: in vivo, Triticum aestivum
Condition Notes: postemergence, rate 0.0156 kg/ha
Procedure: In the tests, seedling plants are grown in jiffy flats for about two weeks. The test compounds are dispersed in 50/50 acetone/water mixtures containing 0.5% TWEEN®20, a polyoxyethylene sorbitan monolaurate surfactant of Atlas Chemical Industries, in sufficient quantities to provide the equivalent of about 0.0156 kg to 0.500 kg per hectare of active compound when applied to the plants through a spray nozzle operating at 40 psi for a predetermined time. […]
Measured herbicidal rating TRZAWR by item
// no unit string in output, number only

CCOC(=O)CN1C(=O)CSC1=Nc1cc(N2C(=O)CC(C(F)(F)F)CC2=O)c(F)cc1Cl
4.5
CCOC(=O)CN1C(=O)C(C(=O)OCC)SC1=Nc1cc(-n2c(=O)cc(C(F)(F)F)n(C)c2=O)c(F)cc1Cl (stereo not shown)
2.5

In: Record lookup: for TRZAWR (Wheat, Winter, cv Riband), what herbicidal rating TRZAWR belongs to Cn1c(C(F)(F)F)cc(=O)n(-c2cc(N=C3SCC(=O)N3Cc3ccco3)c(Cl)cc2F)c1=O ?
Out: 3.0

In: # returns recorded herbicidal rating TRZAWR (system: TRZAWR (Wheat, Winter, cv Riband)) for CCS(=O)(=O)NC(=O)CC1SC(=Nc2cc(-n3c(=O)cc(C(F)(F)F)n(C)c3=O)c(F)cc2Cl)N(C)C1=O (stereo not shown)
Out: 3.5

In: herbicidal rating TRZAWR of COc1cccc(CN2C(=O)CSC2=Nc2cc(-n3c(=O)cc(C(F)(F)F)n(C)c3=O)c(F)cc2Cl)c1 on TRZAWR (Wheat, Winter, cv Riband)?
Out: 3.5

In: Tell me reported herbicidal rating TRZAWR for Cn1c(C(F)(F)F)cc(=O)n(-c2cc(N=C3SCC(=O)N3C3CC3)c(Cl)cc2F)c1=O , tested with TRZAWR (Wheat, Winter, cv Riband).
Out: 3.0

In: Which herbicidal rating TRZAWR is reported with TRZAWR (Wheat, Winter, cv Riband) for this entry: Cc1ccc(CN2C(=O)CSC2=Nc2cc(-n3c(=O)cc(C(F)(F)F)n(C)c3=O)c(F)cc2Cl)cc1C ?
Out: 2.5

* * *

Tested on: ZEAMX (Corn, Field)
Procedure Text: Preemergence herbicidal evaluation
Type: in vivo, Zea mays
Condition Notes: rate 0.0625 kg/ha; rated 4-5 weeks after treatment
Lab note: anything with Preemergence herbicidal rating ZEAMX below 1 is marked t; values at 1 or higher are marked f.

CCOC(=O)CN1C(=O)C(CC(=O)O)SC1=Nc1cc(-n2nc(C)n(C(F)F)c2=O)c(F)cc1Cl (centres unmarked) [Compound 112]
t
CCOP(=O)(CN1C(=O)CSC1=Nc1cc(-n2c(=O)cc(C(F)(F)F)n(C)c2=O)c(F)cc1Cl)OCC [Compound 35]
t
Cn1c(C(F)(F)F)cc(=O)n(-c2cc(N=C3SCC(=O)N3CCC(=O)O)c(Cl)cc2F)c1=O [Compound 31]
f
CCOC(=O)[C@H](C)N1C(=O)CSC1=Nc1cc(-n2c(=O)cc(C(F)(F)F)n(C)c2=O)c(F)cc1Cl [Compound 76]
f
CCCCOC(=O)CN1C(=O)CSC1=Nc1cc(-n2c(=O)cc(C(F)(F)F)n(C)c2=O)c(F)cc1Cl [Compound 111]
t

In: Does this molecule meet the criterion Preemergence herbicidal rating ZEAMX < 1? Cn1c(C(F)(F)F)cc(=O)n(-c2cc(N=C3SCC(=O)N3CC(=O)OCC3CC3)c(Cl)cc2F)c1=O [Compound 124]
Out: t

In: In the record for C=CCN1C(=O)C(CC(=O)NS(=O)(=O)C(C)C)SC1=Nc1cc(-n2c(=O)cc(C(F)(F)F)n(C)c2=O)c(F)cc1Cl (centres unmarked) [Compound 118] , is Preemergence herbicidal rating ZEAMX less than 1?
Out: t

In: Criterion: Preemergence herbicidal rating ZEAMX strictly below 1. Is it met by Cn1c(C(F)(F)F)cc(=O)n(-c2cc(N=C3SCC(=O)N3CC(=O)OCC#N)c(Cl)cc2F)c1=O [Compound 109] ?
Out: f

In: Does the reported Preemergence herbicidal rating ZEAMX of the following molecule sit strictly below 1? CCOC(=O)CN1C(=O)C(C(=O)OCC)SC1=Nc1cc(-n2c(=O)cc(C(F)(F)F)n(C)c2=O)c(F)cc1Cl (centres unmarked) [Compound 127]
Out: t

In: Identify whether the molecule CCOC(=O)CN1C(=O)C(CC(=O)NS(=O)(=O)C(C)C)SC1=Nc1cc(-n2c(=O)cc(C(F)(F)F)n(C)c2=O)c(F)cc1Cl (centres unmarked) [Compound 117] records Preemergence herbicidal rating ZEAMX below 1.
Out: t

* * *

System: SAGPY (Arrowhead (Pygmaea))
Procedure Text: Postemergence weed control under flooded paddy conditions
Assay type: in vivo, Sagittaria pygmaea
Condition Notes: Rate 0.2500 kg/ha, postemergence weeds, rated 3 to 4 weeks after treatment
Outcome Measure: Herbicidal rating SAGPY
The response must contain the number and no unit.

CCOC(=O)[C@H](C)N1C(=O)CSC1=Nc1cc(-n2c(=O)cc(C(F)(F)F)n(C)c2=O)c(F)cc1Cl
4.0
CCOC(=O)CN1C(=O)C(Cc2ccccc2OC(C)C(=O)O)S/C1=N/c1cc(-n2c(=O)cc(C(F)(F)F)n(C)c2=O)c(F)cc1Cl (stereo not shown)
0.0
Cn1c(C(F)(F)F)cc(=O)n(-c2cc(N=C3SCC(=O)N3[C@H](Cc3ccccc3)C(=O)O)c(Cl)cc2F)c1=O
3.0
C=CCN1C(=O)C(CC(=O)NOC)SC1=Nc1cc(-n2c(=O)cc(C(F)(F)F)n(C)c2=O)c(F)cc1Cl (stereo not shown)
9.0
COC(=O)[C@H](Cc1ccc([N+](=O)[O-])cc1)N1C(=O)CSC1=Nc1cc(-n2c(=O)cc(C(F)(F)F)n(C)c2=O)c(F)cc1Cl
4.0

In: Any idea what its Herbicidal rating SAGPY is? The molecule is Cn1c(C(F)(F)F)cc(=O)n(-c2cc(N=C3SCC(=O)N3C3CCOC3=O)c(Cl)cc2F)c1=O (stereo not shown)
Out: 4.0

In: What does the record list as Herbicidal rating SAGPY for COC(=O)C1(N2C(=O)CSC2=Nc2cc(-n3c(=O)cc(C(F)(F)F)n(C)c3=O)c(F)cc2Cl)CCCCC1 ?
Out: 0.0

* * *

Postemergence herbicidal rating GALAP values, listed per item
Test system: GALAP (Galium)
Procedure Text: Postemergence herbicidal evaluation
Type: in vivo, Galium aparine
Condition Notes: Rate 0.0630 kg/ha
Respond using a number only.

Before answering, review these 2 worked examples.
CCOP(=O)(CN1C(=O)CSC1=Nc1cc(-n2c(=O)cc(C(F)(F)F)n(C)c2=O)c(F)cc1Cl)OCC
5.0
CCOC(=O)CN1C(=O)C(CC(=O)O)O/C1=N/c1cc(-n2c(=O)cc(C(F)(F)F)n(C)c2=O)c(F)cc1Cl (stereo not shown)
5.0

In: # query: Postemergence herbicidal rating GALAP | item CCOC(=O)CN1CCSC1=Nc1cc(-n2nc(C)n(C(F)F)c2=O)c(F)cc1Cl | system: GALAP (Galium)
Out: 4.0

In: State its Postemergence herbicidal rating GALAP on GALAP (Galium): CCOC(=O)CN1C(=O)C(CC(=O)NC)SC1=Nc1cc(-n2c(=O)cc(C(F)(F)F)n(C)c2=O)c(F)cc1Cl (stereo not shown)
Out: 5.0

* * *

Consider the following compounds and their measured Preemergence herbicidal rating AMBEL readings.
Tested on: AMBEL (Ragweed, Common)
Procedure Text: Preemergence herbicidal evaluation
Format: in vivo, Ambrosia artemisifolia
Condition Notes: rate 0.5000 kg/ha; rated 4-5 weeks after treatment
From the text: Results of herbicide evaluation are expressed on a rating scale (0-9). The scale is based upon a visual observation of plant stand, vigor, malformation, size, chlorosis and overall plant appearance as compared with a control. […] The compounds evaluated are reported by compound number given in Example 37.

CCOC(=O)CN1C(=O)C(SC)SC1=Nc1cc(-n2c(=O)cc(C(F)(F)F)n(C)c2=O)c(F)cc1Cl (stereo not shown)
9.0
Cn1c(C(F)(F)F)cc(=O)n(-c2cc(N=C3SCC(=O)N3CC(=O)OCC#N)c(Cl)cc2F)c1=O
9.0
CCOC(=O)CCN1C(=O)CSC1=Nc1cc(-n2c(=O)cc(C(F)(F)F)n(C)c2=O)c(Cl)cc1Cl
9.0

In: Given the entry C#CCOC(=O)CC1SC(=Nc2cc(-n3c(=O)cc(C(F)(F)F)n(C)c3=O)c(F)cc2Cl)N(CC(=O)OCC)C1=O (stereo not shown) , report its measured Preemergence herbicidal rating AMBEL.
Out: 9.0

* * *

Form field: Herbicidal rating MOOVA (one value per entry).
System: MOOVA (Monochoria)
Procedure Text: Postemergence weed control under flooded paddy conditions
Assay type: in vivo, Monochoria vaginalis
Condition Notes: rate 0.0625 kg/ha, postemergence weeds, 3-4 weeks after treatment

// solved cases for Herbicidal rating MOOVA follow
CCOC(=O)CN1C(=O)C(CC(=O)O)O/C1=N/c1cc(-n2c(=O)cc(C(F)(F)F)n(C)c2=O)c(F)cc1Cl (centres unmarked)
9.0
C=CCN1C(=O)CSC1=Nc1cc(-n2c(=O)cc(C(F)(F)F)n(C)c2=O)c(F)cc1Cl
9.0
CCOC(=O)CN1C(=O)C(CC(=O)OCc2ccccc2)OC1=Nc1cc(-n2c(=O)cc(C(F)(F)F)n(C)c2=O)c(F)cc1Cl (centres unmarked)
9.0
CCOC(=O)CN1C(=O)C(CC(=O)NC)SC1=Nc1cc(-n2c(=O)cc(C(F)(F)F)n(C)c2=O)c(F)cc1Cl (centres unmarked)
9.0
CCOC(=O)CN1C(=O)C(F)SC1=Nc1cc(-n2c(=O)cc(C(F)(F)F)n(C)c2=O)c(F)cc1Cl (centres unmarked)
1.0
Cn1c(C(F)(F)F)cc(=O)n(-c2cc(N=C3SCC(=O)N3CC(=O)NS(C)(=O)=O)c(Cl)cc2F)c1=O
9.0
CCOC(=O)CN1C(=O)CSC1=Nc1cc(N2C(=O)C3=C(CCCC3)C2=O)c(F)cc1Cl
6.0

In: # get_value(readout='Herbicidal rating MOOVA', item= CCOC(=O)COc1ccccc1CC1S/C(=N/c2cc(-n3c(=O)cc(C(F)(F)F)n(C)c3=O)c(F)cc2Cl)N(CC(=O)OCC)C1=O (centres unmarked) )
Out: 9.0
